assay_system: Mu-type opioid receptor (Homo sapiens, UniProt P35372)
Sequence (P35372 whole entry): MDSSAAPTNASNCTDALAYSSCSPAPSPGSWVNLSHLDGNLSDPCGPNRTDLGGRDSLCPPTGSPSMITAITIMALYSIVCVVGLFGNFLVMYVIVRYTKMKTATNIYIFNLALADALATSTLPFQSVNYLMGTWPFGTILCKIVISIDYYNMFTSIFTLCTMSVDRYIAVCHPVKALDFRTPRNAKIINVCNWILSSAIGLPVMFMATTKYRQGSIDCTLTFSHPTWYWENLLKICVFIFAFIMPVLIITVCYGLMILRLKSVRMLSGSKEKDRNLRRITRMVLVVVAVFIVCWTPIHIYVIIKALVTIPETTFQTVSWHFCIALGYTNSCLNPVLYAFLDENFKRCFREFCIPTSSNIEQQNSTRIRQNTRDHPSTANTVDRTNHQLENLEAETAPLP
parameter_measured: pKi
Answers are plain numbers, as −log10 of the molar value.

Examples with answers:
| compound | assay_system | pKi |
| --- | --- | --- |
| CCC1(CC)CC(OCCCNCc2cccc(Cl)c2Cl)(c2ccccn2)CCO1 (stereo not given) | Mu-type opioid receptor (Homo sapiens, UniProt P35372) | 6.27 |
| CN(C)C(=O)C(CCN1C[C@H](F)C[C@H]1C(=O)NCCCCN1CCN(c2nsc3ccccc23)CC1)(c1ccccc1)c1ccccc1 | Mu-type opioid receptor (Homo sapiens, UniProt P35372) | 6.84 |
| FC(F)(F)c1cccc(N2CCN(CCCOC3(c4ccccn4)CCOC4(CCCC4)C3)CC2)n1 (stereo not given) | Mu-type opioid receptor (Homo sapiens, UniProt P35372) | 5.79 |
| CCc1cc(Cl)c(OC)c(N2CCN(CCCCc3cn(CCC(C(=O)N(C)C)(c4ccccc4)c4ccccc4)nn3)CC2)c1 | Mu-type opioid receptor (Homo sapiens, UniProt P35372) | 5.67 |

From here, focus on the item given below.
Quick note, pKi for Clc1ccc([C@@H]2C[C@H]2NCCC2(c3ccccn3)CCOC3(CCCC3)C2)cc1 (relative stereo) landed at 7.07

###

assay_system: D(2) dopamine receptor (Homo sapiens)
Sequence (P14416 whole entry): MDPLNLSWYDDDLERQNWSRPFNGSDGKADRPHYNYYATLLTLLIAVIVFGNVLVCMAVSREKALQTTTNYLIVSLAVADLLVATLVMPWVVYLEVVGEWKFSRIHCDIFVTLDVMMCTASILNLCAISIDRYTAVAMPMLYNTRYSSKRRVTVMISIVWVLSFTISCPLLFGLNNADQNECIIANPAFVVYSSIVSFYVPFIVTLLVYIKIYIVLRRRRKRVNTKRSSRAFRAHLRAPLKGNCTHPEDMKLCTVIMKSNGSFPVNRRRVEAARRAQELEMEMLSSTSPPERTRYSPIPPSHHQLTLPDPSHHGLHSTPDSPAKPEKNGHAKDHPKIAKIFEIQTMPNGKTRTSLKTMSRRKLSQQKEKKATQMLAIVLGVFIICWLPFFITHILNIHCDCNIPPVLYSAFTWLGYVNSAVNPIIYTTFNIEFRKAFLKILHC
Field: Ki. Provide a value for each of the compounds that follow.

| compound | parameter_measured | reading |
| --- | --- | --- |
| CN(C)C(=O)C(CCN(CCO)[C@@H]1C[C@H]1c1ccc(Cl)cc1)(c1ccccc1)c1ccccc1 (relative stereo) | Ki | 7330 nM |
| CCc1cc(Cl)c(OC)c(N2CCN(C[C@@H]3C[C@@H](O)CN3CCC(C(=O)N(C)C)(c3ccccc3)c3ccccc3)CC2)c1 | Ki | 870 nM |
| CC1CCC(CN2CCN(c3cccc(Cl)c3Cl)CC2)CN1CCC(C(=O)N(C)C)(c1ccccc1)c1ccccc1 (stereo not drawn) | Ki | 146 nM |

Please look at the items below and tell me Ki for each one, in order.
1. CN(C)C(=O)C(CCN1CCN(c2nsc3ccccc23)CC1)(c1ccccc1)c1ccccc1
2. CN(C)C(=O)C(CCN1C[C@H](O)C[C@H]1CN1CCN(c2cccc(Cl)c2Cl)CC1)(c1ccccc1)c1ccccc1

Data returned:
465 nM
1180 nM

Please look at the items below and tell me Ki for each one, in order.
1. CN(C)C(=O)C(CCN1C[C@H](O)C[C@H]1CN1CCN(c2cccc(C(F)(F)F)n2)CC1)(c1ccccc1)c1ccccc1
2. CCC1(CC)CC(OCCCN2CCN(c3cccc(C(F)(F)F)n3)CC2)(c2ccccn2)CCO1 (stereo not drawn)
3. FC(F)(F)c1cccc(N2CCN(CCC3(c4ccccn4)CCOC4(CCCC4)C3)CC2)n1 (stereo not drawn)
4. COc1ccsc1CNCC[C@@]1(c2ccccn2)CCOC2(CCCC2)C1
5. Fc1cncc(CNCC[C@@]2(c3ccccn3)CCOC3(CCCC3)C2)c1
6. Clc1ccc([C@@H]2C[C@H]2NCCC2(c3ccccn3)CCOC3(CCCC3)C2)cc1 (relative stereo)
7. CN(C)C(=O)C(CCN1C[C@H](F)C[C@H]1C(=O)NCCCCN1CCN(c2nsc3ccccc23)CC1)(c1ccccc1)c1ccccc1

Data returned:
1: 4660 nM; 2: 1240 nM; 3: 5430 nM; 4: 83200 nM; 5: > 100000 nM; 6: 5520 nM; 7: 322 nM

Quick note, Ki for CN(C)C(=O)C(CCN1CCC(CCN2CCN(c3cccc(Cl)c3Cl)CC2)C1)(c1ccccc1)c1ccccc1 (stereo not drawn) landed at 117 nM
